Reported self-cleavage values for a set of variants
B1: LINE1-full (parent)
chain: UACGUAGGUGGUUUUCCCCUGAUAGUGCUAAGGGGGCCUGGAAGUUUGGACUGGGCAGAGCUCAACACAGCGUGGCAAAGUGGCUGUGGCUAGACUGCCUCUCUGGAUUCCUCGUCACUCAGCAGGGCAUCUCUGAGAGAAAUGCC

Variants of: B1
Protocol Description: self-cleavage, relative activity (ratio to wild type); higher = more cleavage; in vitro, sequencing; the parent is a self-cleaving ribozyme
Experimental Endpoint: self-cleavage

>  <Mutation Code>
U26C U73G

>  <Measured Result>
0.97

$$$$
>  <Mutation Code>
U73A A92U

>  <Measured Result>
0.8

$$$$
>  <Mutation Code>
U23C G55U

>  <Measured Result>
0.22

$$$$
>  <Mutation Code>
A31G U104C

>  <Measured Result>
1.91

$$$$
>  <Mutation Code>
A138G A141U

>  <Measured Result>
1.43

$$$$
>  <Mutation Code>
U12C U115G

>  <Measured Result>
2.63

$$$$
>  <Mutation Code>
A69G G93U

>  <Measured Result>
0.01

$$$$
>  <Mutation Code>
A50U

>  <Measured Result>
1

$$$$
>  <Mutation Code>
U14C G35U

>  <Measured Result>
1.02

$$$$
>  <Mutation Code>
U62C U119A

>  <Measured Result>
0.07

$$$$
>  <Mutation Code>
U29C A142U

>  <Measured Result>
0.86

$$$$
>  <Mutation Code>
U39A A107G

>  <Measured Result>
1.42

$$$$
>  <Mutation Code>
U9G U96C

>  <Measured Result>
0

$$$$
>  <Mutation Code>
G10C G55A

>  <Measured Result>
0.6

$$$$
>  <Mutation Code>
U81C A121C

>  <Measured Result>
1.37

$$$$
>  <Mutation Code>
G126A U130C

>  <Measured Result>
1.41

$$$$
>  <Mutation Code>
U29A A136G

>  <Measured Result>
1.38

$$$$
>  <Mutation Code>
U15C U46G

>  <Measured Result>
1.15

$$$$
>  <Mutation Code>
U9A A140U

>  <Measured Result>
1.08

$$$$
>  <Mutation Code>
A43G A117U

>  <Measured Result>
1.93

$$$$
>  <Mutation Code>
G49U C95G

>  <Measured Result>
0.04

$$$$
>  <Mutation Code>
A2G A136U

>  <Measured Result>
0.77

$$$$

Entry source: the RNAGym collection of RNA variant scans (doi:10.7554/elife.90254)
